# Test system: DIGSA
# EXPERIMENT_DESCRIPTION: Glasshouse herbicide test, pre- and post-emergence, percentage damage
# Assay type: in vivo
# EXPERIMENTAL_SETUP: pre-emergence, 1000 g/h, evaluated after 13 days, five point scale
RECORDED_ENDPOINT: percentage damage caused to the plant, DIGSA, PRE Application

| COMPOUND | RESULT_VALUE |
| --- | --- |
| Cc1nc(C(C)F)ccc1C(=O)Nc1nnnn1C (stereo not shown) | 4 (4=60-79%) |
| Cn1nnnc1NC(=O)c1ccccc1Cl | 1 (1=0-19%) |
| CS(=O)(=O)c1ccc(C(=O)Nc2nnn[nH]2)c(Cl)c1COCC(F)(F)F | 1 (1=0-19%) |
| Cc1nc2nc(C(F)(F)F)c(C(=O)Nc3nnnn3C)cc2cc1F | 3 (3=40-59%) |

FYI, the data here is from patent US9686986B2.
